src = patent US20080227711A1

Biological target: T1, CXCL1/Gro-alpha (UniProt P09341 35-107)
T1 construct: also called Gro-α; 125I-CXCL1/Gro-alpha
T1 sequence: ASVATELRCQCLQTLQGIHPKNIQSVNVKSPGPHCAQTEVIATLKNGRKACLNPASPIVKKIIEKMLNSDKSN
Assay: SPR (Biacore 3000), Evasin-3 from E. coli immobilized on CM4 chip, Kd=kd/ka
assay-endpoint: pKd
Field pKd (float): negative decimal logarithm of the concentration in molar.

Recorded pKd of recombinant Evasin-3 produced in E. coli (Met-Evasin-3) (other, No tag, not glycosylated; also called mature Met-Evasin-3) MLVSTIESRTSGDGADNFDVVSCNKNCTSGQNECPEGCFCGLLGQNKKGHCYKIIGNLSGEPPVVRR , please.
8.92
